// provenance: the supplement of paper PMC5998384

System: HeLa Kyoto
protocol-description: thermal stability score vs G1/S (z-score of summed log2 fold changes over temperatures); higher = more thermally stable than in G1/S
setup-conditions: cell cycle stage: mitosis
assay-endpoint: thermal stability score
Numbers only.

If you can, please state the reported thermal stability score value of MGILEKISEIEKEIARTQKNKATEYHLGLLKAKLAKYRAQLLEPSKSASSKGEGFDVMKSGDARVALIGFPSVGKSTFLSLMTSTASEAASYEFTTLTCIPGVIEYKGANIQLLDLPGIIEGAAQGKGRGRQVIAVARTADVIIMMLDATKGEVQRSLLEKELESVGIRLNKHKPNIYFKPKKGGGISFNSTVTLTQCSEKLVQLILHEYKIFNAEVLFREDCSPDEFIDVIVGNRVYMPCLYVYNKIDQISMEEVDRLARKPNSVVISCGMKLNLDYLLEMLWEYLALTCIYTKKRGQRPDFTDAIILRKGASVEHVCHRIHRSLASQFKYALVWGTSTKYSPQRVGLTHTMEHEDVIQIVKK [DRG2] .
-0.907

----------
Answer each item with its documented thermal stability score.
Tested on: HeLa Kyoto
protocol-description: thermal stability score vs G1/S (z-score of summed log2 fold changes over temperatures); higher = more thermally stable than in G1/S
setup-conditions: cell cycle stage: early G1 (4.5 h after nocodazole release)
Numbers only.

Illustrative cases are given below, each with its answer.
{"columns": ["sequence-text", "assayed-system", "value-measured"],
 "data": [
  ["MARFALTVVRHGETRFNKEKIIQGQGVDEPLSETGFKQAAAAGIFLNNVKFTHAFSSDLMRTKQTMHGILERSKFCKDMTVKYDSRLRERKYGVVEGKALSELRAMAKAAREECPVFTPPGGETLDQVKMRGIDFFEFLCQLILKEADQKEQFSQGSPSNCLETSLAEIFPLGKNHSSKVNSDSGIPGLAASVLVVSHGAYMRSLFDYFLTDLKCSLPATLSRSELMSVTPNTGMSLFIINFEEGREVKPTVQCICMNLQDHLNGLTETR [TIGAR]", "HeLa Kyoto", -0.092],
  ["MKLPIFIADAFTARAFRGNPAAVCLLENELDEDMHQKIAREMNLSETAFIRKLHPTDNFAQSSCFGLRWFTPASEVPLCGHATLASAAVLFHKIKNMNSTLTFVTLSGELRARRAEDGIVLDLPLYPAHPQDFHEVEDLIKTAIGNTLVQDICYSPDTQKLLVRLSDVYNRSFLENLKVNTENLLQVENTGKVKGLILTLKGEPGGQTQAFDFYSRYFAPWVGVAEDPVTGSAHAVLSSYWSQHLGKKEMHAFQCSHRGGELGISLRPDGRVDIRGGAAVVLEGTLTA [PBLD]", "HeLa Kyoto", -0.159]
]}

Next:
If you can, please state the reported thermal stability score value of MVSWMICRLVVLVFGMLCPAYASYKAVKTKNIREYVRWMMYWIVFALFMAAEIVTDIFISWFPFYYEIKMAFVLWLLSPYTKGASLLYRKFVHPSLSRHEKEIDAYIVQAKERSYETVLSFGKRGLNIAASAAVQAATKSQGALAGRLRSFSMQDLRSISDAPAPAYHDPLYLEDQVSHRRPPIGYRAGGLQDSDTEDECWSDTEAVPRAPARPREKPLIRSQSLRVVKRKPPVREGTSRSLKVRTRKKTVPSDVDS [REEP4] .
-1.06

----------
System: HeLa Kyoto
protocol-description: thermal stability score vs G1/S (z-score of summed log2 fold changes over temperatures); higher = more thermally stable than in G1/S
setup-conditions: cell cycle stage: early G1 (4.5 h after nocodazole release)
assay-endpoint: thermal stability score
Numbers only.

Illustrative cases are given below, each with its answer.
{"columns": ["sequence-text", "thermal stability score"],
 "data": [
  ["MASDEGKLFVGGLSFDTNEQSLEQVFSKYGQISEVVVVKDRETQRSRGFGFVTFENIDDAKDAMMAMNGKSVDGRQIRVDQAGKSSDNRSRGYRGGSAGGRGFFRGGRGRGRGFSRGGGDRGYGGNRFESRSGGYGGSRDYYSSRSQSGGYSDRSSGGSYRDSYDSYATHNE [CIRBP]", -0.492],
  ["MAAAVAAAPGALGSLHAGGARLVAACSAWLCPGLRLPGSLAGRRAGPAIWAQGWVPAAGGPAPKRGYSSEMKTEDELRVRHLEEENRGIVVLGINRAYGKNSLSKNLIKMLSKAVDALKSDKKVRTIIIRSEVPGIFCAGADLKERAKMSSSEVGPFVSKIRAVINDIANLPVPTIAAIDGLALGGGLELALACDIRVAASSAKMGLVETKLAIIPGGGGTQRLPRAIGMSLAKELIFSARVLDGKEAKAVGLISHVLEQNQEGDAAYRKALDLAREFLPQGPVAMRVAKLAINQGMEVDLVTGLAIEEACYAQTIPTKDRLEGLLAFKEKRPPRYKGE [AUH]", 0.266]
]}

Next:
If you can, please state the reported thermal stability score value of MAGPAWISKVSRLLGAFHNPKQVTRGFTGGVQTVTLIPGDGIGPEISAAVMKIFDAAKAPIQWEERNVTAIQGPGGKWMIPSEAKESMDKNKMGLKGPLKTPIAAGHPSMNLLLRKTFDLYANVRPCVSIEGYKTPYTDVNIVTIRENTEGEYSGIEHVIVDGVVQSIKLITEGASKRIAEFAFEYARNNHRSNVTAVHKANIMRMSDGLFLQKCREVAESCKDIKFNEMYLDTVCLNMVQDPSQFDVLVMPNLYGDILSDLCAGLIGGLGVTPSGNIGANGVAIFESVHGTAPDIAGKDMANPTALLLSAVMMLRHMGLFDHAARIEAACFATIKDGKSLTKDLGGNAKCSDFTEEICRRVKDLD [IDH3A] .
-0.172

----------
Tested on: HeLa Kyoto
protocol-description: thermal stability score vs G1/S (z-score of summed log2 fold changes over temperatures); higher = more thermally stable than in G1/S
setup-conditions: cell cycle stage: mitosis
assay-endpoint: thermal stability score
Answers are plain numbers.

Illustrative cases are given below, each with its answer.
{"columns": ["sequence-text", "assayed-system", "value-measured"],
 "data": [
  ["MSYGRPPPDVEGMTSLKVDNLTYRTSPDTLRRVFEKYGRVGDVYIPRDRYTKESRGFAFVRFHDKRDAEDAMDAMDGAVLDGRELRVQMARYGRPPDSHHSRRGPPPRRYGGGGYGRRSRSPRRRRRSRSRSRSRSRSRSRSRYSRSKSRSRTRSRSRSTSKSRSARRSKSKSSSVSRSRSRSRSRSRSRSPPPVSKRESKSRSRSKSPPKSPEEEGAVSS [SRSF2]", "HeLa Kyoto", -5.51],
  ["MAAVQMDPELAKRLFFEGATVVILNMPKGTEFGIDYNSWEVGPKFRGVKMIPPGIHFLHYSSVDKANPKEVGPRMGFFLSLHQRGLTVLRWSTLREEVDLSPAPESEVEAMRANLQELDQFLGPYPYATLKKWISLTNFISEATVEKLQPENRQICAFSDVLPVLSMKHTKDRVGQNLPRCGIECKSYQEGLARLPEMKPRAGTEIRFSELPTQMFPEGATPAEITKHSMDLSYALETVLNKQFPSSPQDVLGELQFAFVCFLLGNVYEAFEHWKRLLNLLCRSEAAMMKHHTLYINLISILYHQLGEIPADFFVDIVSQDNFLTSTLQVFFSSACSIAVDATLRKKAEKFQAHLTKKFRWDFAAEPEDCAPVVVELPEGIEMG [AAR2]", "HeLa Kyoto", 1.07]
]}

Next:
Tell me reported thermal stability score for MDAAEVEFLAEKELVTIIPNFSLDKIYLIGGDLGPFNPGLPVEVPLWLAINLKQRQKCRLLPPEWMDVEKLEKMRDHERKEETFTPMPSPYYMELTKLLLNHASDNIPKADEIRTLVKDMWDTRIAKLRVSADSFVRQQEAHAKLDNLTLMEINTSGTFLTQALNHMYKLRTNLQPLESTQSQDF [GINS2] , tested with HeLa Kyoto.
-2.97

----------
Tested on: HeLa Kyoto
protocol-description: solubility change mitosis vs G1/S (difference of NP-40 vs SDS log2 ratios) (log2 ratio difference); higher = more soluble in mitosis
assay-endpoint: solubility change mitosis (log2)
Numbers only.

If you can, please state the reported solubility change mitosis (log2) value of MTGKKSSREKRRKRSSQEAAAALAAPDIVPALASGSSGSTSGCGSAGGCGSVSCCGNANFSGSVTGGGSGGSCWGGSSVERSERRKRRSTDSSSVSGSLQQETKYILPTLEKELFLAEHSDLEEGGLDLTVSLKPVSFYISDKKEMLQQCFCIIGEKKLQKMLPDVLKNCSIEEIKKLCQEQLELLSEKKILKILEGDNGMDSDMEEEADDGSKMGSDLVSQQDICIDSASSVRENKQPEGLELKQGKGEDSDVLSINADAYDSDIEGPCNEEAAAPEAPENTVQSEAGQIDDLEKDIEKSVNEILGLAESSPNEPKAATLAVPPPEDVQPSAQQLELLELEMRARAIKALMKAGDIKKPA [CAAP1] .
0.56

----------
Test system: HeLa Kyoto
protocol-description: solubility change mitosis vs G1/S (difference of NP-40 vs SDS log2 ratios) (log2 ratio difference); higher = more soluble in mitosis
assay-endpoint: solubility change mitosis (log2)
Answers are plain numbers.

Please look at the items below and tell me solubility change mitosis (log2) for each one, in order.
1. MPNFSGNWKIIRSENFEELLKVLGVNVMLRKIAVAAASKPAVEIKQEGDTFYIKTSTTVRTTEINFKVGEEFEEQTVDGRPCKSLVKWESENKMVCEQKLLKGEGPKTSWTRELTNDGELILTMTADDVVCTRVYVRE [CRABP2]
2. MAGNFWQSSHYLQWILDKQDLLKERQKDLKFLSEEEYWKLQIFFTNVIQALGEHLKLRQQVIATATVYFKRFYARYSLKSIDPVLMAPTCVFLASKVEEFGVVSNTRLIAAATSVLKTRFSYAFPKEFPYRMNHILECEFYLLELMDCCLIVYHPYRPLLQYVQDMGQEDMLLPLAWRIVNDTYRTDLCLLYPPFMIALACLHVACVVQQKDARQWFAELSVDMEKILEIIRVILKLYEQWKNFDERKEMATILSKMPKPKPPPNSEGEQGPNGSQNSSYSQS [CCNC]
3. MSWIPFKIGQPKKQIVPKTVERDFEREYGKLQQLEEQTRRLQKDMKKSTDADLAMSKSAVKISLDLLSNPLCEQDQDLLNMVTALDTAMKRMDAFNQEKVNQIQKTVIEPLKKFGSVFPSLNMAVKRREQALQDYRRLQAKVEKYEEKEKTGPVLAKLHQAREELRPVREDFEAKNRQLLEEMPRFYGSRLDYFQPSFESLIRAQVVYYSEMHKIFGDLSHQLDQPGHSDEQRERENEAKLSELRALSIVADD [BIN3]
4. MVARVWSLMRFLIKGSVAGGAVYLVYDQELLGPSDKSQAALQKAGEVVPPAMYQFSQYVCQQTGLQIPQLPAPPKIYFPIRDSWNAGIMTVMSALSVAPSKAREYSKEGWEYVKARTK [MIC13]

1. -0.109
2. -0.0468
3. 0.0471
4. 0.449
